cell viability: recorded values
Tested on: SW480
assay.details: cell viability (CellTiter-Glo) relative to plate median (fraction of plate median); higher = more viable cells
conditions: 5 µM; treatment time 24 h; reporter: 7TFP
Lab note: record just the number, no unit beside it.

Some molecules with known cell viability results, for comparison:
molecule: COc1ccc(C(=O)O[C@H]2CC[C@@]3(C)[C@@H]4CC[C@H]5[C@]6(O)C[C@H](O)[C@@]7(O)[C@@H](CN8C[C@@H](C)CC[C@H]8[C@@]7(C)O)[C@]6(O)C[C@@]53O[C@]24O)cc1OC
cell viability: 1.02

molecule: O=c1c(O)c(-c2ccc(O)c(O)c2)oc2c(O)c(O)cc(O)c12
cell viability: 0.947

molecule: COC(=O)[C@]1(C)CC[C@]2(C)CC[C@]3(C)C4=CC=C5C(=CC(=O)C(O)=C5C)[C@]4(C)CC[C@@]3(C)[C@@H]2C1
cell viability: 1.03

Prompt: Fill in cell viability for record COC(C)(C)CCC[C@H](C)C/C=C/C(C)=C/C(=O)OC(C)C
Response: 0.972

Prompt: Supply recorded cell viability for CC1(C)C2C[C@@H](O)[C@]3(C)C(CC[C@@]4(C)[C@H](c5ccoc5)OC(=O)[C@H]5O[C@]543)[C@@]2(C)[C@@H](O)C[C@H]1O (stereo partly specified) here.
Response: 0.989

Prompt: Return reported cell viability. Input molecule: CN1[C@H]2C[C@H](OC(=O)[C@H](CO)c3ccccc3)C[C@@H]1[C@@H](O)C2
Response: 0.957

Prompt: For CNC(C)C(O)c1ccccc1 (stereo unspecified) , write its cell viability.
Response: 1.07

Prompt: Supply recorded cell viability for C[C@]12CCC(=O)C[C@@H]1CC[C@@H]1[C@@H]2CC[C@]2(C)C(=O)CC[C@@H]12 here.
Response: 0.959

Prompt: Indicate its recorded cell viability; the molecule in question is C1CCc2nnnn2CC1
Response: 0.925

Prompt: For the molecule C=C[C@H]1CN2CC[C@H]1C[C@H]2[C@H](OC(=O)OCC)c1ccnc2ccc(OC)cc12 , give its reported cell viability.
Response: 0.995

Prompt: Fill in reported cell viability for this entry: COc1cc([C@@H]2c3cc4c(cc3[C@H](O)[C@H]3COC(=O)[C@H]23)OCO4)cc(OC)c1OC
Response: 0.95

Prompt: Provide measured cell viability value, entry: CC(=O)O[C@H]1C(=O)[C@@]2(C)[C@H]([C@H](OC(=O)c3ccccc3)[C@]3(O)C[C@H](O)C(C)=C1C3(C)C)[C@]1(OC(C)=O)CO[C@@H]1C[C@@H]2O
Response: 0.985

Prompt: Indicate its recorded cell viability; the molecule in question is CCC(C)C(=O)OC1CC2(C)C(c3ccoc3)OC(=O)CC23OC2(C)OC34C(OC(=O)C(C)C)C3(O)C(OC(=O)C5(C)OC5C)C5(C)CC3(O)C(C)(C5CC(=O)OC)C14O2 (stereo unspecified)
Response: 1.08

Prompt: Tell me measured cell viability for FC(F)(F)c1cccc(N2CCNCC2)c1 please.
Response: 1.02

Prompt: Provide measured cell viability value, entry: OC[C@@H]1CCCN2CCCC[C@H]12
Response: 0.995

Prompt: Please give the documented cell viability of C=CCc1ccc2c(c1)OCO2
Response: 1.06

Prompt: Input NC(=O)c1ccc(N)nc1 , output reported cell viability.
Response: 1.01

Prompt: State its cell viability for this molecule: CC(=O)C1CCC2C3CCC4C[C@H](O)CCC4(C)C3C[C@H](O)C12C (stereo partly drawn) [DIHYDROXY (3alpha,12alpha)PREGNAN-20-ONE]
Response: 1.1

Prompt: Give a short answer stating reported cell viability for CC(=O)CC1CCCCN1 (stereo unspecified) .
Response: 0.993

Prompt: Return cell viability (reported value) for this molecule: C/C=C/c1ccc2c(c1)OCO2
Response: 0.986

* * *

Tested on: DLD1
assay.details: cell viability (CellTiter-Glo) relative to plate median (fraction of plate median); higher = more viable cells
conditions: 5 µM; treatment time 24 h; reporter: 7TFP
The label is 1 for cell viability below 1 and -1 for cell viability equal to or exceeding 1.

# count of solved cases: 3
compound: O=c1ccc2cc(O[C@@H]3O[C@H](CO)[C@@H](O)[C@H](O)[C@H]3O)c(O)cc2o1
classification: -1
//
compound: O=C1C[C@@H]2OCC=C3CN4CC[C@]56c7ccccc7N1[C@H]5[C@H]2[C@H]3C[C@H]46
classification: -1
//
compound: Cc1ccc(O)cc1.Cc1cccc(O)c1.Cc1ccccc1O
classification: -1

Prompt: Given the entry [O-][n+]1ccccc1[S-].[O-][n+]1ccccc1[S-].[Zn+2] , would its reported cell viability be below 1?
Response: 1

Prompt: API: query returns whether the compound falls strictly under 1 in cell viability. Query: C/C=C/[C@H]1O[C@@](O)([C@@H](C)[C@H](O)[C@H](C)[C@H]2OC(=O)/C(OC)=C/C(C)=C/[C@@H](C)[C@@H](O)[C@@H](CC)[C@@H](O)[C@H](C)C/C(C)=C/C=C/[C@@H]2OC)C[C@@H](O[C@H]2C[C@@H](O)[C@H](OC(N)=O)[C@@H](C)O2)[C@@H]1C [Concanamycin A]
Response: 1

Prompt: Threshold test, cell viability < 1: CC(=O)O[C@H]1C[C@H](O[C@H]2[C@@H](O)C[C@H](O[C@H]3[C@@H](O)C[C@H](O[C@H]4CC[C@@]5(C)[C@H](CC[C@@H]6[C@@H]5C[C@@H](O)[C@]5(C)[C@@H](C7=CC(=O)OC7)CC[C@]65O)C4)O[C@@H]3C)O[C@@H]2C)O[C@H](C)[C@H]1O[C@@H]1O[C@H](CO)[C@@H](O)[C@H](O)[C@H]1O
Response: 1

Prompt: Hello, I'm reviewing records and need to know if cell viability of CNC(=O)Oc1ccc2c(c1)[C@]1(C)CCN(C)[C@@H]1N2C is below 1. Could you check?
Response: 1

* * *

Tested on: DLD1
assay.details: cell viability (CellTiter-Glo) relative to plate median (fraction of plate median); higher = more viable cells
conditions: 5 µM; treatment time 24 h; reporter: 7TFP
Checkbox rule: cell viability lower than 1 = 1.0; cell viability not lower than 1 = 0.0.

molecule: O=C1CCCN1CC#CCN1CCCC1
experimental.target: DLD1
classification: 0.0
--
molecule: C[C@]12CCC3C(CC[C@H]4C[C@H](OS(=O)(=O)O)CC[C@]34C)C1CCC2=O (stereo partly drawn)
experimental.target: DLD1
classification: 0.0
--
molecule: C[C@]12CC[C@H](O)C[C@@H]1CC[C@@H]1[C@@H]2CC[C@]2(C)C(=O)CC[C@@H]12
experimental.target: DLD1
classification: 1.0
--
molecule: CC(=O)O[C@@H]1C[C@@]2(C)[C@H](c3ccoc3)C[C@H]3O[C@]32[C@]2(C)C(=O)C(O)=C3C(C)(C)C(=O)C=C[C@]3(C)[C@@H]12
experimental.target: DLD1
classification: 1.0
--
molecule: O=C1C=C2C(=CCOC2O)O1 (stereo not drawn)
experimental.target: DLD1
classification: 1.0
--
molecule: COc1ccc(/C=C/c2cc(O)cc(O)c2)cc1
experimental.target: DLD1
classification: 0.0
--
molecule: Cc1cccc(C)c1NC1=NCCCS1
experimental.target: DLD1
classification: 0.0
--
molecule: CCCC(C)(COC(N)=O)COC(=O)NC(C)C (stereo not drawn)
experimental.target: DLD1
classification: 0.0

Please look at the following molecule next.
Prompt: Here's an entry: NC(=O)C[S+]([O-])C(c1ccccc1)c1ccccc1 (stereo not drawn) . Is its cell viability below 1?
Response: 1.0

* * *

System: SW480
assay.details: TCF/Wnt firefly luciferase reporter signal relative to plate median (fraction of plate median); higher = higher Wnt reporter signal
conditions: 5 µM; treatment time 24 h; reporter: 7TFP
measured.parameter: TCF/Wnt firefly luciferase reporter signal
Format: numeric value only, no unit, no commentary.

Past entries and their recorded results:
molecule: CC1(C)C2C[C@@H](O)[C@]3(C)C(CC[C@@]4(C)[C@H](c5ccoc5)OC(=O)[C@H]5O[C@]543)[C@@]2(C)[C@@H](O)C[C@H]1O (stereo not given in full)
numeric.readout: 0.936
--
molecule: CC(C)[N+](C)(CCC(C(N)=O)(c1ccccc1)c1ccccc1)C(C)C
numeric.readout: 1.03
--
molecule: CC[C@@]1(O)C[C@H](O)c2c(cc3c(c2O)C(=O)c2c(O)ccc(O)c2C3=O)[C@H]1C(=O)OC
numeric.readout: 0.908
--
molecule: COc1ccc(O)c2c(=O)c3c(OC)cc4c(c3oc12)C1C=COC1O4 (stereo not given)
numeric.readout: 0.999

Here is another molecule to look at.
Prompt: Would you please give the reported TCF/Wnt firefly luciferase reporter signal of C=C1C2CC[C@@]3(C)[C@H](c4ccoc4)OC(=O)C[C@]13O[C@H]1CC(=O)C(C)(C)[C@H](C(OC(C)=O)C(=O)OC)[C@@]21C (stereo not given in full) with SW480?
Response: 0.826
